tested_on: T1, DcR3 (UniProt O95407 30-300, limits assumed)
T1 construct: the construct is not described; also called decoy receptor DcR3; TNFRSF6B
T1 sequence (looked up): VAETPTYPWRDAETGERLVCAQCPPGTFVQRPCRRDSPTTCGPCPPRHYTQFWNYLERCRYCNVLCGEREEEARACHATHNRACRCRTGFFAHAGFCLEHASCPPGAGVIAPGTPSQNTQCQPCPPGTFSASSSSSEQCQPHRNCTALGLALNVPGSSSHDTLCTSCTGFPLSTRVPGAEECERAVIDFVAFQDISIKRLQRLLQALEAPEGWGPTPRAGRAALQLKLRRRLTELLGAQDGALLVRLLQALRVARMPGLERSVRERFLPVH
test_protocol: ELISA, DcR3
Rel EC50 values by entry

Ask | I am curious: what Rel EC50 value has been reported for TL1W129 (His-TEV-TL1A Y238K) (ligand, also called TL1W129 (Y238K)) HHHHHHENLYFQGLKGQEFAPSHQQVYAPLRADGDKPRAHLTVVRQTPTQHFKNQFPALHWEHELGLAFTKNRMNYTNKFLLIPESGDYFIYSQVTFRGMTSECSEIRQAGRPNKPDSITVVITKVTDSYPEPTQLLMGTKSVCEVGSNWFQPIYLGAMFSLQEGDKLMVNVSDISLVDKTKEDKTFFGAFLL ?
Reply | 2 ratio (head: nM)

More entries:
Ask | I am curious: what Rel EC50 value has been reported for TL1W33 (His-TEV-hTL1A 72-251 R103A) (ligand, also called TL1W33 (R103A)) HHHHHHENLYFQGLKGQEFAPSHQQVYAPLRADGDKPRAHLTVVAQTPTQHFKNQFPALHWEHELGLAFTKNRMNYTNKFLLIPESGDYFIYSQVTFRGMTSECSEIRQAGRPNKPDSITVVITKVTDSYPEPTQLLMGTKSVCEVGSNWFQPIYLGAMFSLQEGDKLMVNVSDISLVDYTKEDKTFFGAFLL ?
Reply | 0.7 ratio (head: nM)

Ask | I am curious: what Rel EC50 value has been reported for TL1W91 (His-TEV-TL1A R156E) (ligand, also called TL1W91 (R156E)) HHHHHHENLYFQGLKGQEFAPSHQQVYAPLRADGDKPRAHLTVVRQTPTQHFKNQFPALHWEHELGLAFTKNRMNYTNKFLLIPESGDYFIYSQVTFEGMTSECSEIRQAGRPNKPDSITVVITKVTDSYPEPTQLLMGTKSVCEVGSNWFQPIYLGAMFSLQEGDKLMVNVSDISLVDYTKEDKTFFGAFLL ?
Reply | 1.8 ratio (head: nM)

Ask | I am curious: what Rel EC50 value has been reported for TL1W99 (His-TEV-TL1A S176A) (ligand, also called TL1W99 (S176A)) HHHHHHENLYFQGLKGQEFAPSHQQVYAPLRADGDKPRAHLTVVRQTPTQHFKNQFPALHWEHELGLAFTKNRMNYTNKFLLIPESGDYFIYSQVTFRGMTSECSEIRQAGRPNKPDAITVVITKVTDSYPEPTQLLMGTKSVCEVGSNWFQPIYLGAMFSLQEGDKLMVNVSDISLVDYTKEDKTFFGAFLL ?
Reply | 2.5 ratio (head: nM)

Ask | I am curious: what Rel EC50 value has been reported for TL1W2 (His-TEV-hTL1A 72-251) (ligand, Non-covalent trimer; entry holds the His-TEV tag; also called His-TL1A; His-TL1A (TL1W2)) HHHHHHENLYFQGLKGQEFAPSHQQVYAPLRADGDKPRAHLTVVRQTPTQHFKNQFPALHWEHELGLAFTKNRMNYTNKFLLIPESGDYFIYSQVTFRGMTSECSEIRQAGRPNKPDSITVVITKVTDSYPEPTQLLMGTKSVCEVGSNWFQPIYLGAMFSLQEGDKLMVNVSDISLVDYTKEDKTFFGAFLL ?
Reply | 1 ratio (head: nM)

Ask | I am curious: what Rel EC50 value has been reported for TL1W89 (His-TEV-TL1A R156Y) (ligand, also called TL1W89 (R156Y)) HHHHHHENLYFQGLKGQEFAPSHQQVYAPLRADGDKPRAHLTVVRQTPTQHFKNQFPALHWEHELGLAFTKNRMNYTNKFLLIPESGDYFIYSQVTFYGMTSECSEIRQAGRPNKPDSITVVITKVTDSYPEPTQLLMGTKSVCEVGSNWFQPIYLGAMFSLQEGDKLMVNVSDISLVDYTKEDKTFFGAFLL ?
Reply | 1.7 ratio (head: nM)

Values compiled from patent US20220056104A1.
